Data provenance: PubChem BioAssay AID1463

Assay: Counterscreen qHTS for Inhibitors of Tau Fibril Formation, Fluorescence Polarization; also: nearly all actives have a fitted effect of over 55% in size
Settings: tau K18 P301L Alexa594 fluorescence, heparin fibrillization; series mostly up to 57.7 µM
Out of some 280,000 compounds screened, about 2,600 (0.93%) were called active. Inconclusive results (about 8%) are left out. Calls follow the shape of the dose curve; as a rule, active = well fitted curve in the direction sought with a large enough effect; inconclusive = small, poorly fitted or top-dose-only effect; inactive = flat fitted curve, though single readings scatter. The entries come from a sample that favours actives as a whole.
One label from this list, please: active, inactive

Record excerpt, results attached:
Cc1ccccc1CNC(=O)c1cccc(NC(=O)c2nsc3ccccc23)c1
inactive
Cn1c(SCC(=O)N2CCCc3ccccc32)ncc(C(=O)Nc2ccc(F)cc2)c1=O
inactive
COc1ccc(OC)c(NC(=O)CN2CCCN(Cc3cc(C)ccc3C)S2(=O)=O)c1
inactive
Cc1cccc(NC(=O)c2ccc3nc(C(C)C)oc3c2)c1C
inactive
Cc1cccc(NC(=S)NCCN(C2CCCCC2)C2CCCC2)c1
inactive
Cc1cccc(NC(=S)NCc2ccc3[nH]c4c(c3c2)CCCC4)c1
active
Cc1ccc(NC(=O)c2cc(-c3ccc(C)o3)nc3ccccc23)nc1
inactive
COc1cccc(Nc2nc(N)c([N+](=O)[O-])c(NCc3ccco3)n2)c1
active
CC(C)S(=O)(=O)c1oc(-c2ccc(F)cc2)nc1S(=O)(=O)c1ccc(F)cc1
inactive
O=[N+]([O-])c1ccccc1NCc1ccc(Cl)cc1
inactive

In: Please let me know the test result on file for CCOc1cc(C2C(C(=O)OC)=C(C)NC3=C2C(=O)c2ccccc23)ccc1O (configuration not stated) .
Out: active

In: Please let me know the test result on file for "Nc1nc(SCc2ccccc2Cl)n[nH]1" .
Out: inactive

In: Please let me know the test result on file for "CCS(=O)(=O)N1CCc2cc(C(=O)N3CCN(c4ccccc4OC)CC3)ccc21" .
Out: inactive

In: Please let me know the test result on file for "COc1ccc(NC(=O)COCc2cc(-c3ccco3)on2)cc1" .
Out: inactive

In: Please let me know the test result on file for "CC1(C)N=C(SCc2ccccc2Cl)c2ccccc2N1" .
Out: active

In: Please let me know the test result on file for "Cc1ccc(Nc2nc(-c3ccc(O)cc3O)cs2)nc1" .
Out: active

In: Please let me know the test result on file for CC(=O)Nc1ccc(NC(=O)C2CCCN(S(=O)(=O)c3ccc4c(c3)CCCC(=O)N4)C2)cc1 (configuration not stated) .
Out: inactive

---

Experiment: Counterscreen qHTS for Inhibitors of Tau Fibril Formation, Fluorescence Polarization; also: nearly all actives have a fitted effect of over 55% in size
Settings: tau K18 P301L (four-repeat tau fragment) Alexa594 fluorescence, heparin fibrillization; series mostly up to 57.7 µM
About 2,600 (0.93%) of roughly 280,000 compounds were called active. Another 8% or so got no clear call; they are omitted. For the sample, actives were picked, then their nearest neighbours and some compounds at random.
MEASUREMENT_TYPE: outcome

COc1ccc(C)cc1-n1c(-c2ccc(C)cc2)cc2c1CC(C)(C)CC2=O
inactive
COc1cc(/C=N/NC(=O)CCc2n[nH]c(=O)[nH]c2=O)ccc1O
inactive
CCNc1nc(NCC)nc(N/N=C/c2ccc(O)c(OC)c2)n1
inactive
O=C(NCc1ccccc1)c1cccc(NC(=O)N2CCSc3ncccc32)c1
inactive

In: Any idea what its outcome is? The compound is "c1ccc2sc(NN=C3CCCC3)nc2c1"
Out: inactive

In: Any idea what its outcome is? The compound is "COc1ccc(/C=N/Nc2nc3ccccc3o2)cc1OC"
Out: inactive
